target: GST-tagged truncated human mutant G2019S LRRK2 (Homo sapiens, UniProt Q5S007, G2019S); assay: LRRK2 G2019S Km ATP LanthaScreen assay; type: biochemical; details: 134 μM ATP (Km ATP), LRRKtide substrate, mean IC50 values; read-out: LRRK2 pIC50 (converted)
readout-kind: IC50 (nM)
One number for each entry, in nM.

Qu. # query: IC50 of entry OC1COCC1N1CCN(c2cc3nc(Nc4cnn(C5CC5(F)F)c4Cl)ncc3cc2Cl)CC1 (single isomer, unassigned) [Ex-6.27]
Ans. 0.27

Qu. How about this compound: Cc1cc2cnc(Nc3cnn(C4CC4)c3C)nc2cc1N1CCN(C2(C)COC2)CC1
Ans. 2.82

Qu. Param item: Cc1nsc(Nc2ncc3ccc(N4C(=O)C5CCC4C5)cc3n2)c1C (stereo not shown) [Ex-8.14]
Ans. 7.79

Qu. Further, for Cc1c(Nc2ncc3cc(Cl)c(N4CCN(C5COCC5O)CC4)cc3n2)cnn1C(C)(C)C#N (single isomer, unassigned) [Ex-6.23] ?
Ans. 13.2

Qu. And for CCn1ncc(Nc2ncc3ccc(N4CCC4C)cc3n2)c1C (single isomer, unassigned) [Ex-1.10] ?
Ans. 13.3

Qu. Would you mind doing Cn1ncc(Nc2ncc3cc(Cl)c(N4CCN(C5(C)COC5)CC4)cc3n2)c1C(F)(F)F as well?
Ans. 19.3

Return reported IC50 values for all items listed beneath this line.
1. CC(C)c1cc(Nc2ncc3ccc(N4C(=O)OC[C@@H]4C)cc3n2)ns1
2. CC1(N2CCN(c3cc4nc(Nc5cnn(C6CC6)c5Cl)ncc4cc3Cl)CC2)COC1 [Ex-4.58]
3. Clc1cc2cnc(Nc3cnn(C45CC(C4)C5)c3Cl)nc2cc1N1CCNCC1
4. Cc1cc2cnc(Nc3cnn(C4CC4)c3Cl)nc2cc1N1CCC(C)(O)CC1

Ans.
1. 8.03
2. 2.32
3. 2.13
4. 12.1

---

target: GST-tagged truncated human mutant G2019S LRRK2 (Homo sapiens, UniProt Q5S007, G2019S); assay: LRRK2 G2019S Km ATP LanthaScreen assay; format: biochemical; conditions: 134 μM ATP (Km ATP), LRRKtide substrate, mean IC50 values; read-out: LRRK2 pIC50 (converted)
readout-kind: IC50 (nM)
Give bare numbers, in nM.

Worked cases, answers included:
Qu. Which IC50 is listed for CC1(O)CCN(c2c(Cl)cc3cnc(Nc4cnn(C56CC(C5)C6)c4Cl)nc3c2Cl)CC1 ?
Ans. 1.24

Qu. Query Cn1ncc(Nc2ncc3ccc(N4C(=O)C5CCC4C5)cc3n2)c1C(F)F (single isomer, unassigned) [Ex-4.6] next
Ans. 34.9

// for each molecule below, give its IC50
1. CC1(N2CCN(c3cc4nc(Nc5cnn6c5CCC6)ncc4cc3Cl)CC2)COC1
2. C[C@H]1COC(=O)N1c1ccc2cnc(Nc3ccns3)nc2c1
3. CC(C)Nc1cc2nc(Nc3cnn(C4CCN(C5(C)COC5)CC4)c3Cl)ncc2cc1Cl
4. Cc1c(Nc2ncc3ccc(N4C(=O)OC[C@@H]4C)cc3n2)cnn1C1C[C@@H](C)O[C@@H](C)C1 (single isomer, unassigned) [Ex-7.4]
5. Cc1c(Nc2ncc3cc(Cl)c(N4CCN(C5CCCC5C#N)CC4)cc3n2)cnn1C1CC1 (single isomer, unassigned) [Ex-1.7]

Ans.
1: 2.59; 2: 5.08; 3: 15; 4: 6.75; 5: 6.91

---

target: GST-tagged truncated human mutant G2019S LRRK2 (Homo sapiens, UniProt Q5S007, G2019S); assay: LRRK2 G2019S Km ATP LanthaScreen assay; format: biochemical; details: 134 μM ATP (Km ATP), LRRKtide substrate, mean IC50 values; read-out: LRRK2 pIC50 (converted)
readout-kind: log10(IC50) (log10 of the value in nM)
Hey, these are logged values: log10 of IC50, nM being the unit before logging.

Example compounds with recorded log10(IC50):
Qu. Fill in the blank: the reported log10(IC50) of Cc1cc2cnc(Nc3cnn(C45CC(C4)C5)c3Cl)nc2cc1N1CCN(C2COCC2O)CC1 (single isomer, unassigned) [Ex-13.3] is ____.
Ans. 0.84

Qu. Follow-up item: Cc1cc(Nc2ncc3cc(Cl)c(N4CCN(C5(C)COC5)CC4)cc3n2)sn1 [Ex-4.62]
Ans. -0.10

Qu. Do the same for Cn1ncc(Nc2ncc3cc(Cl)c(N4CCN(C5(C)COCC5O)CC4)cc3n2)c1Cl (single isomer, unassigned) [Ex-6.28] please
Ans. -0.42

Qu. Same read-out for Cc1c(Nc2ncc3cc(Cl)c(N4CCN(C5COCC5O)CC4)cc3n2)cnn1C(F)F (single isomer, unassigned) [Ex-13.7] ?
Ans. 1.50

Qu. For CC1(n2ncc(Nc3ncc4cc(Cl)c(N5CC6(CN(CC(F)(F)F)C6)C5)cc4n3)c2Cl)CC1 [Ex-4.38] then?
Ans. 1.47

Required: log10(IC50), one value per compound below.
1. Cn1ncc(Nc2ncc3cc(Cl)c(N4CCN(C5(C)COCC5O)CC4)cc3n2)c1Cl (single isomer, unassigned) [Ex-6.36]
2. C[C@H]1COC(=O)N1c1ccc2cnc(Nc3cc(C(C)(C)C)ns3)nc2c1 [Ex-8.10]

Ans.
1. 1.05
2. -0.20

---

target: GST-tagged truncated human mutant G2019S LRRK2 (Homo sapiens, UniProt Q5S007, G2019S); experiment: LRRK2 G2019S Km ATP LanthaScreen assay; assay type: biochemical; conditions: 134 μM ATP (Km ATP), LRRKtide substrate, mean IC50 values; read-out: LRRK2 pIC50 (converted)
Can you tell me IC50 for the items I'm about to list?
Answers are plain numbers, in nM.

Record excerpt, results attached:
Qu. Name the recorded IC50 for Cc1c(Nc2ncc3ccc(N4C(=O)OC[C@@H]4C)cc3n2)cnn1C1C[C@@H](C)O[C@@H](C)C1 (single isomer, unassigned) [Ex-7.6] .
Ans. 1.57

Qu. Note, next up: CCn1ncc(Nc2ncc3ccc(N4C(=O)[C@@H]5CC[C@H]4C5)nc3n2)c1C (single isomer, unassigned) [Ex-15.3]
Ans. 4.43

More entries:
Qu. Which IC50 value belongs to Cc1c(Nc2ncc3cc(Cl)c(N4CCN(C5COCC5O)CC4)nc3n2)cnn1C1CC1 (single isomer, unassigned) [Ex-16.3] ?
Ans. 4.55

---

biological target: GST-tagged truncated human mutant G2019S LRRK2 (Homo sapiens, UniProt Q5S007, G2019S); test: LRRK2 G2019S Km ATP LanthaScreen assay; format: biochemical; details: 134 μM ATP (Km ATP), LRRKtide substrate, mean IC50 values; read-out: LRRK2 pIC50 (converted)
readout-kind: IC50 (nM)
One number for each entry, in nM.

Solved cases below.
Qu. Request the reported IC50 associated with CC1(N2CCN(c3cc4nc(Nc5ccn(CC(F)(F)F)n5)ncc4cc3Cl)CC2)COC1
Ans. 28.3

Qu. Then what about the molecule Cc1c(Nc2cc3cc(N4CCN([C@]5(C)COC[C@@H]5O)CC4)c(Cl)cc3cn2)cnn1C1CC1 (single isomer, unassigned) [Ex-1.2] ?
Ans. 8.41

Qu. Same question, Cc1c(Nc2ncc3cc(Cl)c(N4CCN(C)C(C)(C)C4)cc3n2)cnn1CC(F)F this time
Ans. 180

Qu. What about this molecule? Cc1c(Nc2ncc3cc(Cl)c(N4CCC(C)(O)CC4)cc3n2)cnn1C(C)(C)C#N
Ans. 3.57

Qu. Would you mind doing CC1(O)CCN(c2cc3nc(Nc4cnn(C5(C)CC5)c4Cl)ncc3cc2Cl)CC1 as well?
Ans. 0.625

Qu. Try the molecule CC1(O)CCN(c2cc3nc(Nc4cnn([C@H]5CCN(C6COC6)C[C@@H]5F)c4Cl)ncc3cc2Cl)CC1
Ans. 0.625

Proceed to the following item.
Qu. Fill in the blank: the reported IC50 of CC1(N2CCN(c3cc4nc(Nc5cnn(C(F)F)c5Cl)ncc4cc3Cl)CC2)COCC1O (single isomer, unassigned) is ____.
Ans. 0.178

---

Molecular target: GST-tagged truncated human mutant G2019S LRRK2 (Homo sapiens, UniProt Q5S007, G2019S)
Experiment: LRRK2 G2019S Km ATP LanthaScreen assay
Format: biochemical
Conditions: 134 μM ATP (Km ATP), LRRKtide substrate, mean IC50 values; read-out: LRRK2 pIC50 (converted)
Procedure: Unless otherwise noted, all reactions are magnetically stirred. Unless otherwise noted, when diethyl ether is used in the experiments described below, it is Fisher ACS certified material and is stabilized with BHT. Unless otherwise noted, “concentrated” and/or “solvent removed under reduced pressure” means evaporating the solvent from a solution or mixture using a rotary evaporator or vacuum pump. […] The IC50 values reported herein were measured as follows. […]
readout-kind: log10(IC50) (log10 of the value in nM)
Units before log transform: nM; reported quantity: IC50; transform: log10.

Example results:
Qu. Looking for the measured log10(IC50) of Cc1c(N2CCN(C3(C)COC3)CC2)c(Cl)cc2cnc(Nc3cnn(CC(F)(F)F)c3)nc12 , can you help?
Ans. 0.53

Qu. Now consider Cc1nn(C2CC3(C2)CN(C2COC2)C3)cc1Nc1ncc2ccc(N3C(=O)C4CCC3C4)cc2n1 (single isomer, unassigned) [Ex-8.5] .
Ans. -0.20

Qu. How about this molecule: CC1(O)CCN(c2cc3nc(Nc4cnn(C5CC5)c4)ncc3cc2Cl)CC1
Ans. 0.77

Qu. // next record Clc1cc2cnc(Nc3cnn(C4CC4)c3Cl)nc2cc1N1CCC(N2CCC2)CC1
Ans. 0.52

Lab note: each molecule below needs its log10(IC50) filled in.
1. Clc1cc2cnc(Nc3cnn(C45CC(C4)C5)c3Cl)nc2cc1N1CCC2(CCCO2)CC1
2. COCC12CC(n3cc(Nc4ncc5cc(Cl)c(N6C[C@H]7CC[C@@H](C6)[C@@]7(C)O)cc5n4)cn3)(C1)C2
3. F[C@H]1CN(C2COC2)CC[C@@H]1n1ncc(Nc2ncc3cc(Cl)c(N4CCC5(CC4)COC5)cc3n2)c1Cl
4. CN(C)c1cc2nc(Nc3cnn(C4CC4)c3)ncc2cc1Cl
5. OC1CN(C2CCN(c3cc4nc(Nc5cnn(C6CC6)c5Cl)ncc4cc3Cl)CC2)C1
6. CN(C)[C@@H]1CCN(c2cc3nc(Nc4cnn(CC(F)F)c4Cl)ncc3cc2Cl)C1
7. Cn1cc(Nc2ncc3ccc(N4C(=O)C5CCC4C5)cc3n2)c(C(F)(F)F)n1 (stereo not shown) [Ex-7.9]
8. CO[C@H]1C[C@H](n2ncc(Nc3ncc4cc(Cl)c(N5CCC(C)(O)CC5)cc4n3)c2C)C1

Ans.
0.99
0.32
0.19
0.94
0.23
1.51
1.53
-0.01

Could you report log10(IC50) for every entry in the following list?
1. CC1(N2CCN(c3cc4nc(Nc5cnn(C6(C)CC6)c5)ncc4cc3Cl)CC2)COC1
2. Clc1cc2cnc(Nc3cnn(C4CC4)c3Cl)nc2cc1N1CCn2cnnc2C1
3. Cc1cc(Nc2ncc3ccc(N4C(=O)OC[C@@H]4C)cc3n2)n(C)n1

Ans.
[0.05, 0.17, 0.64]

Qu. What value of log10(IC50) has been recorded for this entry: Cc1cc2cnc(Nc3cnn(C)c3C)nc2cc1N1CCN(C2(C)COCC2O)CC1 (single isomer, unassigned)
Ans. 1.56
